Overview of recorded z-score for various compounds
# measurement.notes: optical density change of DRC41 E. coli – strain DRC41, OD650, 24 h, E. coli filamentation project, primary screen (AID 1093);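 further: MC1000 strain lacking acrAB efflux and sulA so SOS filamentation is blocked; test concentration not given here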
# conditions: E. coli DRC41 growth, higher = more signal, called active from +8 up or from −8 down
Give a plain numeric answer without units written out.

Reference set, count: 5
{"compound": "O=C1O[C@@H](c2ccccc2)[C@@H](c2ccccc2)N2[C@@H](c3ccccc3OCCO)[C@]3(C(=O)Nc4ccc(C#CCCO)cc43)[C@@H](C(=O)NC[C@H](O)c3ccccc3)[C@H]12", "z-score": 0.535}
{"compound": "CC=CC(O)C1C=CC2C(=O)NC(=O)C2N1Nc1ccc(Cl)cc1Cl (stereo unspecified)", "z-score": -1.13}
{"compound": "CCCC#C[Si](O[C@H](CC)c1cn(Cc2ccccc2)nn1)(C(C)C)C(C)C", "z-score": 0.657}
{"compound": "CC(C)NC(=O)[C@@]1(c2ccc([N+](=O)[O-])cc2)CC(=O)N(CC23CC4CC(CC(C4)C2)C3)[C@@H]1c1ccc(CO)cc1", "z-score": 0.267}
{"compound": "CCC(CC)C(O)C1C=CC2C(=O)N(c3ccccc3)C(=O)C2N1Nc1ccccc1F (stereo unspecified)", "z-score": -0.636}

Prompt: Give the measured z-score of "CC(C)N1C(=O)c2ccccc2[C@@H](C(=O)NCC(F)(F)F)[C@@H]1c1ccc(CO)cc1" .
Completion: -0.199

Prompt: Give the measured z-score of CC(C)(C)N1CC=CC23O[C@@H]4/C=C\CCCOC(=O)C4[C@H]2C(=O)N(CCCO)[C@@H]3C1=O (stereo partly specified) .
Completion: -0.282

Prompt: Give the measured z-score of "COc1ccc([Si](C)(C)[C@H]2[C@H](CCO)O[C@@]3(C(=O)N(Cc4ccc(NC(=O)[C@H](C)O)cc4)c4ccccc43)[C@@H]2C)cc1" .
Completion: 1.38

---

# measurement.notes: Pseudomonas biofilm growth suppression – PAO1 strain, BacTiter-Glo luminescence, LB-PBS, primary screen (AID 1144)
# conditions: P. aeruginosa PAO1 biofilm, 12 h, higher = more signal
assay.readout: z-score
Give a plain numeric answer without units written out.

Reference set, count: 8
{"compound": "COC(=O)[C@@]1(Cc2ccccc2)[C@H]2c3cc(C(=O)N(C)C)n(CCO)c3C[C@H]2CN1C(=O)c1ccccc1", "z-score": 0.409}
{"compound": "C=CCC(OC(C)=O)[C@@H]1[C@@H](N(Cc2cc3ccccc3o2)C(=O)c2cccc3ccccc23)c2cc(OCCCO)ccc2N1C(=O)c1ccc2ccccc2n1 (stereo partly specified)", "z-score": -0.399}
{"compound": "CN(C)CCCCNC(=O)[C@H]1C[C@H]2C(=O)N3CCC[C@H]3C(=O)N2[C@H]1c1cccc(OCCO)c1", "z-score": -1.17}
{"compound": "C=CCC(OC(C)=O)[C@@H]1[C@@H](N(Cc2ccc(-c3ccccc3)cc2)C(=O)c2cccc3ccccc23)c2cc(OCCCO)ccc2N1C(=O)Cc1ccc(OC)cc1 (stereo partly specified)", "z-score": 0.0108}
{"compound": "CC(C)C(O)C1C=CC2C(=O)NC(=O)C2N1Nc1ccccn1 (stereo unspecified)", "z-score": -0.248}
{"compound": "COC(=O)[C@@]1(Cc2ccc(OC)cc2)[C@H]2c3cc(C(=O)N4CCCC4)n(Cc4ccc(Cl)c(C(F)(F)F)c4)c3C[C@H]2CN1C(=O)c1ccccc1", "z-score": 0.237}
{"compound": "C=CCOC(=O)[C@@H]1[C@H]2C(=O)O[C@H](c3ccccc3)[C@H](c3ccccc3)N2[C@H](c2ccc(OCCOC(=O)[C@H]3C[C@H]4C(=O)NCC(=O)N4[C@H]3c3cccc(OCCO)c3)cc2)[C@@]12C(=O)Nc1ccc(I)cc12", "z-score": -0.71}
{"compound": "Cc1ccc(F)cc1S(=O)(=O)N[C@H]1CCN(Cc2ccc(OC(C)C)cc2)C1", "z-score": 0.434}

Prompt: Give the measured z-score of "C[N+](C)(C)CCCC[C@@H]1NC(=O)[C@H]2C[C@@H](C(=O)NCCCCCNC(=O)CS)[C@@H](c3cccc(OCCO)c3)N2C1=O" .
Completion: 0.236

Prompt: Give the measured z-score of "COc1ccc(C(=O)Nc2ccc(CN3C(=O)[C@@]4(O[C@@H](CCn5cc(CCO)nn5)[C@H]([Si](C)(C)c5ccc(OC)cc5)[C@H]4C)c4ccccc43)cc2)cc1" .
Completion: 0.173

Prompt: Give the measured z-score of "CCCC=C(CCC)[C@@H](NC(=O)OCC(C)C)c1ccc(C(=O)OC)cc1" .
Completion: 0.3
